Hi there, I'd appreciate the recorded IC50 for every entry that follows.
- experimental_system: recombinant JAK2 (amino acids 831-1132) (Homo sapiens (Human))
- Sequence (O60674 831-1132): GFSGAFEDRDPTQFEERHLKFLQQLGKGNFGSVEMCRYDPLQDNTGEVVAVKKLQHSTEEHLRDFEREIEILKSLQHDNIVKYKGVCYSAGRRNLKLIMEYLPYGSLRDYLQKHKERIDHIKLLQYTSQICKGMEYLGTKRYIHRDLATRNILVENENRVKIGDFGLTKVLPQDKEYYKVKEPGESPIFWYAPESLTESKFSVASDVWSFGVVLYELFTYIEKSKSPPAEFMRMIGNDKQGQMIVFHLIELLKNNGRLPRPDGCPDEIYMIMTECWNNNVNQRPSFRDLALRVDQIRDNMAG
- measurement_protocol: Enzyme inhibition studies, JAK2 (peptide phosphorylation, Caliper LC3000)
- Format: biochemical
- condition: ATP concentration of the tabulated values not stated (assayed at ATP Km 15 μM and at 5 mM)
Your answer should be a plain number; it is taken to be in µM.

Consider the molecule CCOc1nn(C)cc1Nc1ncc(Cl)c(-c2c[nH]c3c(NC(=O)[C@@H](C)N4CCN(C)CC4)cccc23)n1 [Example 40] and give its measured IC50.
8.93

Which IC50 is reported for this molecule? CCn1cc(Nc2ncc(C)c(-c3c[nH]c4c(NC(=O)[C@@H](C)N5CCN(C)CC5)cccc34)n2)c(OC)n1 [Example 58]
8.85

Bench note: what IC50 did CCc1nn(C)cc1Nc1ncc(C)c(-c2c[nH]c3c(NC(=O)[C@@H](C)N4CCN(C)CC4)cccc23)n1 [Example 55] show?
4.22

Consider the molecule Cc1cnc(Nc2cn(C)nc2C)nc1-c1c[nH]c2c(NC(=O)[C@H](C)N3CCN(C)CC3)cccc12 [Example 42] and give its measured IC50.
21.1

Find the recorded IC50 belonging to CCN1CCN([C@H](C)C(=O)Nc2cccc3c(-c4nc(Nc5cn(C)nc5OC)ncc4C)c[nH]c23)CC1 [Example 16] and report it.
6.24
